- Procedure summary: recombinant UMI read abundance after kanamycin selection (control-corrected) (log10(CPM+1)); higher = more efficient recombination; extreme values may be limits of the assay; sequences stand for … in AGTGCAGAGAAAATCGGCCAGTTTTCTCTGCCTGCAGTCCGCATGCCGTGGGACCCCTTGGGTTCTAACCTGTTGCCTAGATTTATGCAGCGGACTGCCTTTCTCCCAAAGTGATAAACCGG…AGGTTGGTTTCACT; site = the 11-nt donor;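 also: IS621 bridge recombinase in Escherichia coli cells against a fixed T5 target plasmid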
Some sequences, each annotated with its measured recombinant UMI read abundance (log10).

>  <Ordered residues>
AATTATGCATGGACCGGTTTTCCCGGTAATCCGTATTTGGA (site AATTATGCTGC)

>  <recombinant UMI read abundance (log10)>
0

$$$$
>  <Ordered residues>
GGCAATCCATGGACCGGTTTTCCCGGTAATCCGTATTTGGA (site GGCAATCCTTG)

>  <recombinant UMI read abundance (log10)>
0

$$$$
>  <Ordered residues>
GCGGAAACATGGACCGGTTTTCCCGGTAATCCGTATTTGCT (site GCGCAAACTAG)

>  <recombinant UMI read abundance (log10)>
1.5

$$$$
>  <Ordered residues>
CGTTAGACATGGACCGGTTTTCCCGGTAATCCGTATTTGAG (site CGTTCGACTCT)

>  <recombinant UMI read abundance (log10)>
0.00605

$$$$
>  <Ordered residues>
CCATGATCATGGACCGGTTTTCCCGGTAATCCGTATTTGAA (site CCATGATCTTT)

>  <recombinant UMI read abundance (log10)>
1.02

$$$$
>  <Ordered residues>
CTTCTGTCATGGACCGGTTTTCCCGGTAATCCGTATTTGTA (site CTTCTATCTTA)

>  <recombinant UMI read abundance (log10)>
2.41

$$$$
>  <Ordered residues>
GTTCGTGCATGGACCGGTTTTCCCGGTAATCCGTATTTGCA (site GTTCGCGCTTG)

>  <recombinant UMI read abundance (log10)>
0.0038

$$$$
>  <Ordered residues>
GCCCTTTCATGGACCGGTTTTCCCGGTAATCCGTATTTGCT (site GCCCTTTCTAG)

>  <recombinant UMI read abundance (log10)>
1.67

$$$$
>  <Ordered residues>
AGGGTCACATGGACCGGTTTTCCCGGTAATCCGTATTTGAG (site AGGGTCACTCT)

>  <recombinant UMI read abundance (log10)>
1.39

$$$$
